The measurements presented in this section are drawn from ChEMBL document CHEMBL1136869.

test: Oral bioavailability in monkey at 3 mg/kg; format: ADME, organism-based, Macaca mulatta; conditions: rhesus monkey, in vivo
reportedMetric: bioavailability (%)
The reply should contain only the number, in %.

## Input For the compound CCN1CCN(c2cc3[nH]c(C(=O)[C@]4(C)CC[C@@](C)(O)CC4)nc3cc2Cl)CC1 , report bioavailability.
## Output 8

====

assay: Half life in rat at 3 mg/kg, po and 1 mg/kg, iv; type: ADME, organism-based; conditions: in vivo
reportedMetric: half-life (min)
The reply should contain only the number, in min.

## Input For the compound CCN1CCN(c2cc3[nH]c(C(=O)[C@]4(C)CC[C@@](C)(O)CC4)nc3cc2Cl)CC1 , report half-life.
## Output 37.2
